Below, each of the molecules is paired with its reported T/C value.
Test system: CD2F1 mice, L1210 leukemia ip, survival T/C
Assay overview: NCI In Vivo Anticancer Drug Screen. Data for tumor model L1210 Leukemia (intraperitoneal) in CD2F1 (CDF1) mice
Run parameters: endpoint: mean survival time; dose: 400.0 mg/kg/injection; schedule: Q01DX009 (ip); vehicle: saline; higher = longer survival
Toxic doses and inconclusive results are not listed.
Reported metric: T/C

>>> endpoint_value("NCCCNCCSP(=O)(O)O")
"93 % of control"
>>> endpoint_value("CC(C)(C)OC(=O)NN=C1CCC(C(C)(C)C)CC1 (stereo not given)")
"98 % of control"
>>> endpoint_value("CNC1CCC(C(=O)O)CC1 (stereo not given)")
"96 % of control"
>>> endpoint_value("CCOC(=O)CCC(=O)CC(O)(C(F)(F)F)C(F)(F)Cl (stereo not given)")
"107 % of control"
>>> endpoint_value("C(=C\\CN1CCOCC1)/CN1CCOCC1")
"97 % of control"
>>> endpoint_value("CC(=O)ON(C(C)=O)c1ccc(S(=O)(=O)c2ccc(N(OC(C)=O)C(C)=O)cc2)cc1")
"89 % of control"
>>> endpoint_value("CCCCOCC(C)O (stereo not given)")
"100 % of control"
>>> endpoint_value("c1ccc(CCSc2ncnc3nc[nH]c23)cc1")
"124 % of control"
>>> endpoint_value("CCOC(=O)CCN(CC)CC")
"97 % of control"
>>> endpoint_value("CC(C)(C)C=O")
"96 % of control"

###

Test system: CD2F1 mice, L1210 leukemia ip, survival T/C
Assay overview: NCI In Vivo Anticancer Drug Screen. Data for tumor model L1210 Leukemia (intraperitoneal) in CD2F1 (CDF1) mice
Run parameters: endpoint: mean survival time; dose: 12.5 mg/kg/injection; schedule: Q04DX003 (ip); vehicle: saline; higher = longer survival
Procedure: The antitumor activity of compounds was measured in mice bearing transplantable tumors. Survival or tumor size were measured and the results are expressed as the measurement made in the treated group (T) divided by the measurement made in the vehicle treated control group (C). The tumor model used in this assay is L1210 Leukemia (intraperitoneal) in CD2F1 (CDF1) mice
Toxic doses and inconclusive results are not listed.
Below, each of the compounds is paired with its reported T/C value.
Reported metric: T/C

>>> endpoint_value("O=CN(O)CC(=O)O.[Zn]")
"96 % of control"
>>> endpoint_value("CC[P+]1(c2ccccc2)CCCc2ccc3ccccc3c21 (configuration not stated)")
"117 % of control"
>>> endpoint_value("Nc1nc(=O)n(C2OC(CO)C(O)C2O)c(=O)[nH]1 (configuration not stated)")
"103 % of control"
>>> endpoint_value("[NH-]C(CO)C(=O)O.[NH-]C(CO)C(=O)O.[Pd+2] (configuration not stated)")
"102 % of control"
>>> endpoint_value("Cc1c[nH]c(=S)[nH]c1=O.[Pd]")
"97 % of control"
>>> endpoint_value("S=C=NCc1cccc(CN=C=S)c1")
"103 % of control"
>>> endpoint_value("c1ccc2c[n+]3ccccc3cc2c1")
"97 % of control"

###

Test system: CD2F1 mice, L1210 leukemia ip, survival T/C
Assay overview: NCI In Vivo Anticancer Drug Screen. Data for tumor model L1210 Leukemia (intraperitoneal) in CD2F1 (CDF1) mice
Run parameters: endpoint: mean survival time; dose: 6.25 mg/kg/injection; schedule: Q04DX003 (ip); vehicle: saline; higher = longer survival
Inconclusive results and toxic doses are left out.
Below, each of the compounds is paired with its reported T/C value.
Reported metric: T/C

>>> endpoint_value("S=C=NCc1cccc(CN=C=S)c1")
"101 % of control"
>>> endpoint_value("CC1(C)C(O)(C#N)C(C)(C)C1(O)C#N (centres undefined)")
"102 % of control"
>>> endpoint_value("Nc1nc(=O)n(C2OC(CO)C(O)C2O)c(=O)[nH]1 (centres undefined)")
"97 % of control"
>>> endpoint_value("Cc1c[nH]c(=S)[nH]c1=O.[Pd]")
"102 % of control"

###

Below, each of the compounds is paired with its reported T/C value.
Tested on: CD2F1 mice, L1210 leukemia ip, survival T/C
Assay overview: NCI In Vivo Anticancer Drug Screen. Data for tumor model L1210 Leukemia (intraperitoneal) in CD2F1 (CDF1) mice
Run parameters: endpoint: mean survival time; dose: 200.0 mg/kg/injection; schedule: Q04DX003 (ip); vehicle: Klucel (hydroxypropylcellulose) (HPC); higher = longer survival
Inconclusive results and toxic doses are left out.
Reported metric: T/C

>>> endpoint_value("COC(=O)c1cccc2c(Br)cc3ccccc3c12")
"98 % of control"
>>> endpoint_value("Nc1cc(Cl)c2[nH]cnc2n1")
"108 % of control"
>>> endpoint_value("O=S(=O)(N=C1C(Cl)=C(Cl)C(=NS(=O)(=O)c2ccccc2)C(Cl)=C1Cl)c1ccccc1")
"95 % of control"
>>> endpoint_value("S=c1n(Cc2ccccc2)cnc2ncnn12")
"111 % of control"
>>> endpoint_value("COc1cccc(CCCC(=O)O)c1")
"101 % of control"
>>> endpoint_value("CC(C)CCCC(C)C1CCC2C3CCC4CC(OCN5CCCCC5)CCC4(C)C3CCC12C (centres undefined)")
"92 % of control"
>>> endpoint_value("CNC(=O)Nc1nc2ccccc2[nH]1")
"104 % of control"
>>> endpoint_value("CC1CCc2c(nc(C#N)c(=N)n2O)C1 (centres undefined)")
"106 % of control"
>>> endpoint_value("COc1ccc(-c2ncn(-c3ccc(S(=O)(=O)O)cc3)c2-c2ccc(OC)cc2)cc1")
"95 % of control"

###

System: CD2F1 mice, L1210 leukemia ip, survival T/C
Assay overview: NCI In Vivo Anticancer Drug Screen. Data for tumor model L1210 Leukemia (intraperitoneal) in CD2F1 (CDF1) mice
Run parameters: endpoint: mean survival time; dose: 200.0 mg/kg/injection; schedule: Q01DX001 (ip); vehicle: saline with Tween-80; higher = longer survival
Toxic doses and inconclusive results are not listed.
Below, each of the compounds is paired with its reported T/C value.
Reported metric: T/C

>>> endpoint_value("COC(=O)C1(C)CCCC2(C)C1CCC13C(O)C(C(C)C)C1CC23 (configuration not stated)")
"91 % of control"
>>> endpoint_value("Cc1ccc(CCF)cc1")
"109 % of control"
>>> endpoint_value("Cc1nc(N)[nH]c(=O)c1CCCNCc1ccncc1")
"91 % of control"
>>> endpoint_value("NC(=S)Nc1ccccc1[N+](=O)[O-]")
"102 % of control"
>>> endpoint_value("O=C1CCC(Cl)S(=O)(=O)c2ccccc21 (configuration not stated)")
"105 % of control"
>>> endpoint_value("CCOC1OC(C(COC(C)=O)OC(C)=O)C(OC(C)=O)C(OC(C)=O)C1OC(C)=O (configuration not stated)")
"96 % of control"
>>> endpoint_value("C/C=C/C=C/C(=O)c1cc(C#N)c(OC)cc1O")
"88 % of control"

###

Tested on: CD2F1 mice, L1210 leukemia ip, survival T/C
Assay overview: NCI In Vivo Anticancer Drug Screen. Data for tumor model L1210 Leukemia (intraperitoneal) in CD2F1 (CDF1) mice
Run parameters: endpoint: mean survival time; dose: 6.25 mg/kg/injection; schedule: Q04DX003 (ip); vehicle: saline with Tween-80; higher = longer survival
Toxic doses and inconclusive results are not listed.
Reported metric: T/C

>>> endpoint_value("O=[As](O)(CC(O)c1ccccc1)c1cccc(Cl)c1 (centres undefined)")
"104 % of control"
>>> endpoint_value("CCOc1ccc(Nc2nc(C(Cl)(Cl)Cl)cc(C(Cl)(Cl)Cl)n2)cc1CN(CC)CC")
"97 % of control"
>>> endpoint_value("CC1=NN(c2ccccc2)C(=O)/C1=C/N(C)C")
"95 % of control"
>>> endpoint_value("Cc1ccc(Sc2cccc3c(C)c4cccc5c4c(c23)C[S+]5c2ccc(C)cc2)cc1 (centres undefined)")
"98 % of control"

###

Tested on: CD2F1 mice, L1210 leukemia ip, survival T/C
Assay overview: NCI In Vivo Anticancer Drug Screen. Data for tumor model L1210 Leukemia (intraperitoneal) in CD2F1 (CDF1) mice
Run parameters: endpoint: mean survival time; dose: 200.0 mg/kg/injection; schedule: Q01DX009 (ip); vehicle: saline with Tween-80
Toxic doses and inconclusive results are not listed. Rule for the calls: active = survival T/C of 150% or more; inactive = T/C below 125% in these data.
Possible outcomes: true (1) for active, false (0) for inactive

>>> answer_label("C(=Nc1ccccc1)c1ccc(C=Nc2ccccc2)cc1")
"false (0)"
>>> answer_label("C[Si](C)(C)O/C=C1\\CCCCC1=O")
"false (0)"
>>> answer_label("c1ccc(CCCCc2ccc3ccccc3n2)cc1")
"false (0)"
>>> answer_label("CC(=O)Oc1c(C)[nH]ccc1=O")
"true (1)"
>>> answer_label("COc1ccccc1C(O)(c1ccccc1OC)c1c(OC)cccc1OC")
"false (0)"
>>> answer_label("N#CC(/C=C/c1ccccc1)Nc1ccc(CCc2ccc(NC(C#N)/C=C/c3ccccc3)cc2)cc1 (stereo not given)")
"false (0)"
>>> answer_label("COC(=O)Cc1nc2ccccc2[nH]c1=O")
"false (0)"
>>> answer_label("CO[C@H]1C[C@@H]2CC[C@@H](C)[C@@](O)(O2)C(=O)C(=O)N2CCCC[C@H]2C(=O)O[C@H]([C@H](C)C[C@@H]2CC[C@@H](O)[C@H](OC)C2)CC(=O)[C@H](C)C=C(C)[C@@H](O)[C@@H](OC)C(=O)[C@H](C)C[C@H](C)/C=C/C=C/C=C1C")
"false (0)"
>>> answer_label("C#CC1(NC(=O)NC(C)(C)C)CCCCC1")
"false (0)"
>>> answer_label("Nc1nc2ccccc2c2c1C(=O)NC2=O")
"false (0)"
